- System: MALME-3M melanoma
- method: NCI tumour cell line growth inhibition, 48 h
parameter: GI50

>>> result("C[C@@]1(O)CCC[C@H]1n1c(=O)c(C(F)F)cc2cnc(NC3CCN(S(C)(=O)=O)CC3)nc21")
"1.29 µM"

Which GI50 value is on record for Clc1ccc(COC(Cn2ccnc2)c2ccc(Cl)cc2Cl)c(Cl)c1 (configuration not stated) ? 4.52 µM

Also, COc1ccc2c(c1)c(-c1ccc(-c3cn(C)c4ccc(OC)cc34)o1)cn2C please. 52.8 µM

Also, Cc1ccc(-n2c3c(c4c(CN)c(O)ccc42)CCc2ccccc2C3=O)cc1 please. 4.58 µM

Also, Cc1ccc2c(c1)-c1oc(=O)c(-c3cc4ccccc4oc3=O)cc1C(O)O2 (configuration not stated) please. 10.2 µM

Also, CN1CCN(c2ccc(-c3cccc(CN4CCOCC4)c3)cc2NC(=O)c2c[nH]c(=O)cc2C(F)(F)F)CC1 please. 21.6 µM

Also, C=C(C)[C@@H]1CC[C@]2(CN)CC[C@]3(C)[C@H](CC[C@@H]4[C@@]5(C)CCC(N)[C@@](C)(CO)[C@@H]5CC[C@]43C)[C@@H]12 (some centres not stated) please. 1.86 µM

Also, CC(=Nc1ccccc1)C1=C(O)C(Cc2ccc(F)cc2)NC1=O (configuration not stated) please. 0.661 µM
